- target under test: Melanocortin receptor 3 (Homo sapiens)
- Sequence (P41968 whole entry): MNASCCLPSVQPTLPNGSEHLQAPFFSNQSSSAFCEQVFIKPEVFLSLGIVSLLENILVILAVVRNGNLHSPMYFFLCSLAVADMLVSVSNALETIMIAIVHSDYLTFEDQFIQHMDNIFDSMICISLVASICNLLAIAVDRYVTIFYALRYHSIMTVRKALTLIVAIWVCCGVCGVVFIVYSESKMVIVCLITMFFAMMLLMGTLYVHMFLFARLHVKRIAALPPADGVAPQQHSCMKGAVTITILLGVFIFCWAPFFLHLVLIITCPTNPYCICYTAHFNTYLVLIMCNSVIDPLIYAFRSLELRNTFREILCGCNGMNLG
- assay: Displacement of [125I]-NDP-alpha-MSH from human MC3R expressed in HEK293 cells at 10 uM after 40 mins by Wallac 1470 gamma counting relative to Ac-Nle-c[Asp-His-D-Phe-Arg-Trp-Lys]-NH2
- Type: cell-based
Positions of bridges follow the written chain, without caps; N, C: chain ends. Non-standard residues stand in square brackets, D forms with d. Residues, ends and D or L forms follow the SMILES beside them.
measurement kind: Activity (%)

compound	value unit	Activity
CC(=O)N[C@H]1CC(=O)NCCCC[C@@H](C(N)=O)NC(=O)[C@@H](CCC(N)=O)NC(=O)[C@H](Cc2ccccc2)NC(=O)[C@H](Cc2c[nH]c3ccccc23)NC(=O)[C@H](CCCNC(=N)N)NC1=O (Ac-DRWF[dQ]K-NH2; lactam 1-6)	%	0
C[C@@H]1NC(=O)[C@@H](CCC(N)=O)NC(=O)[C@H](Cc2ccccc2)NC(=O)[C@H](Cc2c[nH]c3ccccc23)NC(=O)[C@H](CCCNC(=N)N)NC(=O)CC[C@@H](C(N)=O)NC(=O)[C@H](Cc2ccccc2)NC1=O (RWF[dQ]AFE-NH2; lactam N-7)	%	0
